# Tested on: K-562 (Chronic Myelogenous Leukemia);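 also: after 72 h of two-drug dosing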
# measurement.notes: Bliss excess, mean over the matrix (fraction); higher = more synergy
quantity.kind: Bliss excess
Could you respond with only the numeric value?

Illustrative cases are given below, each with its answer.
- compound: "CCN(CCO)CCCOc1ccc2c(Nc3cc(CC(=O)Nc4cccc(F)c4)[nH]n3)ncnc2c1 [AZD2811] + C[C@@H]1COCCN1C2=NC(=NC(=C2)C3(CC3)[S@](=N)(=O)C)C4=C5C=CNC5=NC=C4 [AZD6738] (first compound max 1 µM, 7x7, partner max 10 µM)"
  target.of.assay: "K-562 (Chronic Myelogenous Leukemia)"
  Bliss excess: -0.0494
- compound: "COc1cc2ncnc(Nc3ccc(F)c(Cl)c3)c2cc1OCCCN1CCOCC1 [Gefitinib] + CC(C)n1c(=O)n(C)c2cnc3cc(F)c(-c4ccc(OCCCN5CCCCC5)nc4)cc3c21 [AZD1390] (first compound max 10 µM, 7x7, partner max 0.3 µM)"
  target.of.assay: "K-562 (Chronic Myelogenous Leukemia)"
  Bliss excess: -0.0304

Query: # return Bliss excess for CN(CCO)CC[C@H](CSc1ccccc1)Nc1ccc(S(=O)(=O)NC(=O)c2ccc(N3CCC([C@@H](O)c4ccccc4-c4ccc(Cl)cc4)CC3)cc2)cc1S(=O)(=O)C(F)(F)F [AZD4320] + CN(C)CCCOc1ccc(-c2ccc3ncc4c(c3c2)n(C2CCOCC2)c(=O)n4C)cn1 [AZD0156] (first compound max 1 µM, 7x7, partner max 1 µM) , test system: K-562 (Chronic Myelogenous Leukemia);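 also: after 72 h of two-drug dosing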
Reply: -0.0027
